# System: HepG2
# run_description: GSK_TCMDC: Percent inhibition of human HepG2 cell line. Test compounds present at 10uM.
# Format: functional
Parameter threshold = 10%. Response is satisfied when Inhibition meets or exceeds it, else not satisfied.

Example cases with answers are listed next.
Incoming: Dear colleague, could you confirm whether Cc1ccc(NC(=O)c2ccc(C(=O)NC3CCN(CC4CCCCC4)CC3)cc2)cc1.O=C(O)C(F)(F)F has Inhibition at or above 10%?
Outgoing: satisfied

Incoming: Dear colleague, could you confirm whether CCN(CC)CCON=Cc1cc(C)c2[nH]c3ccc(OCc4ccccc4)cc3c2c1C has Inhibition at or above 10%?
Outgoing: satisfied

Incoming: Dear colleague, could you confirm whether COc1cc2nc(N3CCC(NC(=O)c4cccc(N(C)C)c4)CC3)nc(N)c2cc1OC.O=C(O)/C=C\C(=O)O has Inhibition at or above 10%?
Outgoing: not satisfied

Incoming: Dear colleague, could you confirm whether COc1ccc2nccc([C@@H](O)CN3CCC(NC(=O)C(c4cccs4)N4CCN(c5ccc(F)cc5)CC4)CC3)c2c1 (some centres undefined) has Inhibition at or above 10%?
Outgoing: not satisfied

Incoming: Dear colleague, could you confirm whether O=C(c1ccc(-c2cnc3[nH]cc(-c4ccc(C(=O)N5CCOCC5)cc4)c3c2)cc1)N1CCOCC1 has Inhibition at or above 10%?
Outgoing: satisfied

Incoming: Dear colleague, could you confirm whether O=C(O)C(F)(F)F.O=c1cc(N2CCCNCC2)c(Cl)nn1Cc1ccc(NS(=O)(=O)c2ccc(Oc3ccccc3)cc2)cc1 has Inhibition at or above 10%?
Outgoing: not satisfied

Incoming: Dear colleague, could you confirm whether Br.Cc1ccc2ccccc2c1CCCON1C(=N)N=C(N)NC1(C)C has Inhibition at or above 10%?
Outgoing: satisfied

New cases:
Incoming: Dear colleague, could you confirm whether O=C(Nc1cccc(F)c1)N(Cc1ccc(-c2ccc(CN3CCNCC3)cc2)cc1)C1CCN(Cc2ccccc2)CC1.O=C(O)C(F)(F)F has Inhibition at or above 10%?
Outgoing: satisfied

====

# Tested on: Plasmodium falciparum
# run_description: GSK_TCMDC: Inhibition of Plasmodium falciparum 3D7 in whole red blood cells, using parasite LDH activity as an index of growth. Test compounds present at 2uM
# Type: functional
endpoint_label: Inhibition (%)
Answers are plain numbers, in %.

Incoming: What value of Inhibition has been reported for the following compound? CCc1c[nH]c2c(N(c3ccccc3)S(C)(=O)=O)cc(C(=O)N[C@@H](Cc3ccccc3)[C@H](O)CNC(C)(C)CCCC(C)C)cc12.O=CO
Outgoing: 98

Incoming: What value of Inhibition has been reported for the following compound? O=C(N[C@@H](CC1CCCCC1)C(=O)NC1CCCCCC1)c1ccc(O)c(-c2ccc(Cl)c(Cl)c2)c1
Outgoing: 99

Incoming: What value of Inhibition has been reported for the following compound? CCCCC(CCCC)CN1C(=O)C(c2ccccc2)(c2ccccc2)N=C1N.O=CO
Outgoing: 96

Incoming: What value of Inhibition has been reported for the following compound? CCN(CC)CCN(Cc1ccc(-c2ccc(C(F)(F)F)cc2)cc1)C(=O)Cn1c(CCc2ccc(F)c(F)c2)cc(=O)c2ccccc21.O=C(O)C(O)C(O)C(=O)O
Outgoing: 95

Answer for every listed entry: what is its Inhibition? The entries follow.
1. CCOc1ccc(C=CC(=O)Nc2ccc3nc(N4CCOCC4)cc(C)c3c2)cc1OC
2. CCc1nc2nc(C)cc(Nc3ccc4c(c3)OCCO4)n2n1
3. Oc1ccc(Nc2nc(NCc3ccco3)c3ccccc3n2)cc1
4. CN(Cc1cccc(C#N)c1)C1CCN(c2cc(NC(=O)c3cccc(F)c3)ccn2)CC1.O=C(O)C(F)(F)F
5. COc1cc(Nc2nccc(-c3c(-c4cccc(NC(=O)c5c(F)cccc5F)c4)nn4ccccc34)n2)cc(OC)c1OC
6. Cc1cccc2nc(-c3ccc(-c4ccc(CNCc5ccc(CN)cc5)cc4)cc3)[nH]c12.O=C(O)C(F)(F)F
7. Cc1nc(-c2cccc(Nc3nccc(NCC(O)c4cccc(C(F)(F)F)c4)n3)c2)cs1 (configuration not stated)
8. CN1CCN(CCCN(Cc2ccc(-c3cccc(CNCc4ccc5c(c4)OCO5)c3)cc2)C(=O)NCCc2ccccc2)CC1.O=C(O)C(F)(F)F

Outgoing:
92
88
100
98
98
100
100
98
